# assay-procedure: Antagonist activity at human CCR3 receptor in human eosinophil assessed as inhibition of eotaxin-induced chemotaxis
Param label: returns Yes when IC50 < 1 nM, returns No otherwise, including exact equality.

C[C@H](CCN1CCC[C@@H](Cc2ccc(F)cc2)C1)NC(=O)Nc1cc(-n2cccn2)cc(-n2cccn2)c1: Yes
CCc1cc(NC(=O)N[C@H](C)CCN2CCC[C@@H](Cc3ccc(F)cc3)C2)cc(-c2nnnn2C)c1: Yes
C[C@H](CCN1CCC[C@@H](Cc2ccc(F)cc2)C1)NC(=O)Nc1cccc(-c2nnnn2C)c1: No
O=C(NCCCN1CCC[C@@H](Cc2ccc(F)cc2)C1)Nc1cc(-n2cccn2)cc(-n2cccn2)c1: No
C[C@@H](CCN1CCC[C@@H](Cc2ccc(F)cc2)C1)NC(=O)Nc1cccc(-c2nnnn2C)c1: No

Input: Does the reported IC50 of the following molecule sit strictly below 1 nM? `C[C@H](CC(=O)N1CCC[C@@H](Cc2ccc(F)cc2)C1)NC(=O)Nc1cccc(-c2nnnn2C)c1`
Output: Yes

Input: Try the molecule `Cn1nnnc1-c1cccc(NC(=O)NCCCN2CCC[C@@H](Cc3ccc(F)cc3)C2)c1`
Output: No

Input: Try the molecule `CC(=O)c1cc(NC(=O)N[C@@H](C)CCN2CCC[C@@H](Cc3ccc(F)cc3)C2)cc(C(C)=O)c1`
Output: No
